Biological target: MSK1(h) (Homo sapiens)
Sequence (O75582 whole entry): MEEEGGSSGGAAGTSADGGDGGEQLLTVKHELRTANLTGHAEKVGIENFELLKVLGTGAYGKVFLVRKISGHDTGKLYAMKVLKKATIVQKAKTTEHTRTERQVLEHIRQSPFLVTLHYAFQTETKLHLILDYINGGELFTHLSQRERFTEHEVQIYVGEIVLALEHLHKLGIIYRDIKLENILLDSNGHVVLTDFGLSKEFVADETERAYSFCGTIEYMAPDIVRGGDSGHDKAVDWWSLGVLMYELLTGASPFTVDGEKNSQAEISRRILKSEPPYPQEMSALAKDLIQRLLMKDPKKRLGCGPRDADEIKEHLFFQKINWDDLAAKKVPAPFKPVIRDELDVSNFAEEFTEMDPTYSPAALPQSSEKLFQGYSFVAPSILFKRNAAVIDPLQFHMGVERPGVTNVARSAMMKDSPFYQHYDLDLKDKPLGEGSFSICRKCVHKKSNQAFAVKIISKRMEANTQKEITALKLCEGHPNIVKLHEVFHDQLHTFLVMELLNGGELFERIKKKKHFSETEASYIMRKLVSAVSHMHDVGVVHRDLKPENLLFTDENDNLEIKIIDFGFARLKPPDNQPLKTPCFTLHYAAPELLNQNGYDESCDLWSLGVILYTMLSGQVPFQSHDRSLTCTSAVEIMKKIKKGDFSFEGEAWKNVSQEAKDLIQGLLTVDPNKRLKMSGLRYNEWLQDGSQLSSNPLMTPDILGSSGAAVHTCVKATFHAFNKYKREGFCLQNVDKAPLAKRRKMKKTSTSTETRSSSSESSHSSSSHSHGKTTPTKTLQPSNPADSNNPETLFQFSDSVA
Test: Kinase Profiling Assay
Type: biochemical
Conditions: 100 μM
Listed next: entries and their corresponding % activity.
Reply with just the number (in %).

- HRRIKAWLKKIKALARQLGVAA [MMI-0500]: 8
- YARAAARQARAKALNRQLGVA [MMI-0200]: 50
- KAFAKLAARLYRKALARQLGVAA [MMI-0400]: 28

Okay, next one:
In: Please supply the value of reported % activity for the item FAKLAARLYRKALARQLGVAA [MMI-0300]
Out: 32

###

Target: EphB1(h) (Homo sapiens)
Sequence (P54762 18-984): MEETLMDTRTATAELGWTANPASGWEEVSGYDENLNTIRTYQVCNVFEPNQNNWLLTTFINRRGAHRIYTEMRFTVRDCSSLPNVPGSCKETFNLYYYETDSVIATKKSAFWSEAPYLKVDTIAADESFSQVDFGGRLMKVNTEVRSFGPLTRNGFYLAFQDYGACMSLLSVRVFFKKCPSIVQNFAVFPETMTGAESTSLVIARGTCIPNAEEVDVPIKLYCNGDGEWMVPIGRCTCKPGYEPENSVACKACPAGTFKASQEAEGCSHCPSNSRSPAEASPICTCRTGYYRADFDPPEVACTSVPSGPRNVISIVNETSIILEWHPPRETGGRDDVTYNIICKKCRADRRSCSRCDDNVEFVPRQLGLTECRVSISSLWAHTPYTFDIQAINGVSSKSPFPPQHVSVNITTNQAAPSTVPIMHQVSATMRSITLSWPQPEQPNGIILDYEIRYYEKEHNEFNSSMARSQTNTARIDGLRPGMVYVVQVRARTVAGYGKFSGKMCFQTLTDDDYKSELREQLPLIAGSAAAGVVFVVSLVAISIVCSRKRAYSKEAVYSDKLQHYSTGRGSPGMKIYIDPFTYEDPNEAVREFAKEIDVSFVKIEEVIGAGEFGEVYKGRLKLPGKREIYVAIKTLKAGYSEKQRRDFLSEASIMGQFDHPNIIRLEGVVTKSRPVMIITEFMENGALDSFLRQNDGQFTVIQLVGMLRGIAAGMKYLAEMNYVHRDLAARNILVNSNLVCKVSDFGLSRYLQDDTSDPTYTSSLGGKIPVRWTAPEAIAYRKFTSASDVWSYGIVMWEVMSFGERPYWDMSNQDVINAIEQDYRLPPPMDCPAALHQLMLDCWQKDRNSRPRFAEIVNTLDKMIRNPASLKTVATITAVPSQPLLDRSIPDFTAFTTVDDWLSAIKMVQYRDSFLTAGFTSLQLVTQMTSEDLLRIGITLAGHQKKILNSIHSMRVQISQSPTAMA
Assay: Kinase Profiling Assay
Type: biochemical
Settings: 100 μM
Listed next: entries and their corresponding % activity.
Reply with just the number (in %).

Record excerpt, results attached:
• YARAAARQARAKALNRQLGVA [MMI-0200] = 95
• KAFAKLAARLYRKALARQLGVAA [MMI-0400] = 58
• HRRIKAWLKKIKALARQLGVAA [MMI-0500] = 37

Okay, next one:
In: Lab note: record % activity of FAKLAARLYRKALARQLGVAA [MMI-0300] tested on EphB1(h) (Homo sapiens).
Out: 44

###

Target: PhKγ2(h) (Homo sapiens)
Sequence (P15735 1-406): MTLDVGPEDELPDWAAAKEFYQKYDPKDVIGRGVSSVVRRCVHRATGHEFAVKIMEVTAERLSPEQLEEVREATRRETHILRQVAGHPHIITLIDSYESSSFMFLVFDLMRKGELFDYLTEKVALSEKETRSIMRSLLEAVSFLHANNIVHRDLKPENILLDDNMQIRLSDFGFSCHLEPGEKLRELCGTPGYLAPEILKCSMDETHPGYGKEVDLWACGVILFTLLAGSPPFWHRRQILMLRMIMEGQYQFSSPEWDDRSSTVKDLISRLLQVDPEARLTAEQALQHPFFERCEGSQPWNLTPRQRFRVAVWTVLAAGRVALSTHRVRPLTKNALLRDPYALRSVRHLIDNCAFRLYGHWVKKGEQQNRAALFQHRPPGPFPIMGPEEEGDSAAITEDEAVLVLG
Assay: Kinase Profiling Assay
Type: biochemical
Details: 100 μM
Listed next: entries and their corresponding % activity.
Reply with just the number (in %).

Record excerpt, results attached:
• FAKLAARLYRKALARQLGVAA [MMI-0300] = 46
• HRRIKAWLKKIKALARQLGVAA [MMI-0500] = 16
• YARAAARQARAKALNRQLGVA [MMI-0200] = 86

Okay, next one:
In: Please supply the value of reported % activity for the item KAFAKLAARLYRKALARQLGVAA [MMI-0400]
Out: 38
